Catalogue of Population Healthy Nuclei (%) values
# Tested on: Fibroblast
# experiment description: Multiplex assay against human fibroblast
# Type: toxicity, cell-based
# study conditions: 12 h, 1 µM, compound concentration 1 uM, replicate 1
Could you give me the number in %? Just the number is fine.

The cases that follow already have their Population Healthy Nuclei (%) on record.
[[record]]
compound = "Cc1cc2c(cc1N1C(=O)c3cccc4c(CCCO)ccc(c34)C1=O)n(C)c(=O)n2C"
target_under_test = "Fibroblast"
measure_name = "Population Healthy Nuclei (%)"
experimental_value = 49

[[record]]
compound = "COc1cc(N2CCC(N(C)C)CC2)ccc1Nc1ncc(Cl)c(Nc2ccccc2P(C)(C)=O)n1"
target_under_test = "Fibroblast"
measure_name = "Population Healthy Nuclei (%)"
experimental_value = 56

[[record]]
compound = "CCCn1c(=O)c2[nH]c(C34CC5CC(CC3C5)C4)nc2n(CCC)c1=O"
target_under_test = "Fibroblast"
measure_name = "Population Healthy Nuclei (%)"
experimental_value = 55

[[record]]
compound = "CC(C)Oc1ccc(C(=O)N[C@H](CNC(=O)CN(C)C)Cc2ccc(-c3cn4cccc([C@H](C)O)c4n3)cc2)cc1Cl [GSK-923295A]"
target_under_test = "Fibroblast"
measure_name = "Population Healthy Nuclei (%)"
experimental_value = 48

[[record]]
compound = "CNc1oc(-c2cccc3ccccc23)nc1C#N"
target_under_test = "Fibroblast"
measure_name = "Population Healthy Nuclei (%)"
experimental_value = 23


[ask] For the compound CN(C)C/C=C/C(=O)Nc1cc2c(Nc3ccc(F)c(Cl)c3)ncnc2cc1O[C@H]1CCOC1.O=C(O)/C=C\C(=O)O.O=C(O)/C=C\C(=O)O [AFATINIB DIMALEATE] , give its measured Population Healthy Nuclei (%) value.
[reply] 53

[ask] For the compound COc1cc2c(Nc3ccc(NC(=O)c4ccccc4)cc3)ncnc2cc1OCCCN1CCOCC1 , give its measured Population Healthy Nuclei (%) value.
[reply] 53

[ask] For the compound CNC(=O)c1nn(C)c2c1C(C)(C)Cc1cnc(Nc3ccc(N4CCN(C)CC4)cc3)nc1-2 , give its measured Population Healthy Nuclei (%) value.
[reply] 59

---

# System: HEK-293T
# experiment description: Multiplex assay against HEK293T
# Format: toxicity, cell-based
# study conditions: human, 12 h, 1 µM, compound concentration 1 uM, replicate 2
measure name: Population Normal (%)
Could you give me the number in %? Just the number is fine.

The cases that follow already have their Population Normal (%) on record.
[[record]]
compound = "Cc1nc(Cc2cccc(C(F)(F)F)c2)sc1-c1ccc(C(N)=O)nc1 [TP-024n]"
experimental_value = 94

[[record]]
compound = "CC(C)(C)c1cnc(CSc2cnc(NC(=O)C3CCNCC3)s2)o1"
experimental_value = 95

[[record]]
compound = "Nc1ccc(C(=O)Nc2cccc(-c3nc(N4CCOCC4)c4oc5ncccc5c4n3)c2)cn1"
experimental_value = 91

[[record]]
compound = "N#Cc1cnc(Nc2cc(NC[C@H]3CNCCO3)c(C(F)(F)F)cn2)cn1"
experimental_value = 97

[[record]]
compound = "Cc1cn(-c2cc(NC(=O)c3ccc4c(c3)CN(c3cncnc3)C[C@@H]4C)cc(C(F)(F)F)c2)cn1"
experimental_value = 96

[[record]]
compound = "COc1ccc(NS(=O)(=O)c2sc3ccc(Cl)cc3c2C)cc1N1CCNCC1.Cl"
experimental_value = 96

[[record]]
compound = "CNc1oc(-c2cccc3ccccc23)nc1C#N"
experimental_value = 88

[[record]]
compound = "COc1cc2c(NC3CCN(C(C)C)CC3)nc(N3CCC(F)(F)CC3)nc2cc1OCCCN1CCCC1"
experimental_value = 93


Okay, now this compound:
[ask] For the compound CC(C)Oc1ccc(C(=O)N[C@H](CNC(=O)CN(C)C)Cc2ccc(-c3cn4cccc([C@H](C)O)c4n3)cc2)cc1Cl [GSK-923295A] , give its measured Population Normal (%) value.
[reply] 97

---

# Test system: Fibroblast
# experiment description: Multiplex assay against human fibroblast
# Assay type: toxicity, cell-based
# study conditions: 24 h, 1 µM, compound concentration 1 uM, replicate 2
# if measured Population Hoechst High Intensity Objects (%) < 30%: 1  # else: 0

[[record]]
compound = "Cc1nc(Cc2cccc(C(F)(F)F)c2)sc1-c1ccc(C(N)=O)nc1 [TP-024n]"
group = 1

[[record]]
compound = "CNc1oc(-c2cccc3ccccc23)nc1C#N"
group = 1

[[record]]
compound = "Nc1nc2c(c(N3CCNCC3)n1)CCC1=C2[C@@H]2CCCC[C@@H]2O1"
group = 1

[[record]]
compound = "COc1cc(N2CCC(N(C)C)CC2)ccc1Nc1ncc(Cl)c(Nc2ccccc2P(C)(C)=O)n1"
group = 0

[[record]]
compound = "c1ccc2oc(-c3csc(C4CCN(Cc5nc6ncccc6[nH]5)CC4)n3)cc2c1"
group = 0

[[record]]
compound = "CCC(=O)O[C@]1(C(=O)SCF)[C@H](C)C[C@H]2[C@@H]3C[C@H](F)C4=CC(=O)C=C[C@]4(C)[C@@]3(F)[C@@H](O)C[C@@]21C [FLUTICASONE PROPIONATE]"
group = 1

[[record]]
compound = "CC(C)Oc1ccc(C(=O)N[C@H](CNC(=O)CN(C)C)Cc2ccc(-c3cn4cccc([C@H](C)O)c4n3)cc2)cc1Cl [GSK-923295A]"
group = 1

[[record]]
compound = "Cl.Cl.NC1(c2ccc(-c3nc4ccn5c(=O)[nH]nc5c4cc3-c3ccccc3)cc2)CCC1"
group = 0

[[record]]
compound = "CCOc1cc2ncc(C#N)c(Nc3ccc(OCc4cccc(F)c4)c(Cl)c3)c2cc1NC(=O)/C=C/CN(C)C"
group = 0

[[record]]
compound = "CN(C)C/C=C/C(=O)Nc1cc2c(Nc3ccc(F)c(Cl)c3)ncnc2cc1O[C@H]1CCOC1.O=C(O)/C=C\\C(=O)O.O=C(O)/C=C\\C(=O)O [AFATINIB DIMALEATE]"
group = 0


[ask] Please check: Population Hoechst High Intensity Objects (%) for CCc1cc2c(cc1CC)CC(NC[C@H](O)c1ccc(O)c3[nH]c(=O)ccc13)C2 , strictly under 30% or not?
[reply] 1

[ask] Please check: Population Hoechst High Intensity Objects (%) for CNC(=O)c1nn(C)c2c1C(C)(C)Cc1cnc(Nc3ccc(N4CCN(C)CC4)cc3)nc1-2 , strictly under 30% or not?
[reply] 0

[ask] Please check: Population Hoechst High Intensity Objects (%) for COc1cc2c(Nc3ccc(NC(=O)c4ccccc4)cc3)ncnc2cc1OCCCN1CCOCC1 , strictly under 30% or not?
[reply] 0

[ask] Please check: Population Hoechst High Intensity Objects (%) for Cc1cn(-c2cc(NC(=O)c3ccc4c(c3)CN(c3cncnc3)C[C@@H]4C)cc(C(F)(F)F)c2)cn1 , strictly under 30% or not?
[reply] 1

[ask] Please check: Population Hoechst High Intensity Objects (%) for CC(=O)c1cc(-c2cc(C(=O)NC3CC3)ccc2C)c2ncccn12 , strictly under 30% or not?
[reply] 1

[ask] Please check: Population Hoechst High Intensity Objects (%) for COc1cc2c(NC3CCN(C(C)C)CC3)nc(N3CCC(F)(F)CC3)nc2cc1OCCCN1CCCC1 , strictly under 30% or not?
[reply] 1

[ask] Please check: Population Hoechst High Intensity Objects (%) for CC(C)(C)c1cnc(CSc2cnc(NC(=O)C3CCNCC3)s2)o1 , strictly under 30% or not?
[reply] 0

[ask] Please check: Population Hoechst High Intensity Objects (%) for COc1ccc(NS(=O)(=O)c2sc3ccc(Cl)cc3c2C)cc1N1CCNCC1.Cl , strictly under 30% or not?
[reply] 1

[ask] Please check: Population Hoechst High Intensity Objects (%) for CC(C)N1CCC(C)(C)c2cc(C#Cc3ccc(C(=O)O)cc3)ccc21 , strictly under 30% or not?
[reply] 1

[ask] Please check: Population Hoechst High Intensity Objects (%) for Nc1ccc(C(=O)Nc2cccc(-c3nc(N4CCOCC4)c4oc5ncccc5c4n3)c2)cn1 , strictly under 30% or not?
[reply] 1

[ask] Please check: Population Hoechst High Intensity Objects (%) for CN(C)CCOc1ccc(-c2nc(-c3ccncc3)c(-c3ccc4c(c3)CC/C4=N\O)[nH]2)cc1 , strictly under 30% or not?
[reply] 0

[ask] Please check: Population Hoechst High Intensity Objects (%) for N#Cc1cnc(Nc2cc(NC[C@H]3CNCCO3)c(C(F)(F)F)cn2)cn1 , strictly under 30% or not?
[reply] 1

---

Catalogue of Population Healthy Nuclei (%) values
# System: U2OS
# experiment description: Multiplex assay against U2OS
# Format: toxicity, cell-based
# study conditions: human, 24 h, 10 µM, compound concentration 10 uM, replicate 2
Could you give me the number in %? Just the number is fine.

The cases that follow already have their Population Healthy Nuclei (%) on record.
[[record]]
compound = "CNc1oc(-c2cccc3ccccc23)nc1C#N"
measure_name = "Population Healthy Nuclei (%)"
unit_text = "%"
experimental_value = 16

[[record]]
compound = "CC(C)N1CCC(C)(C)c2cc(C#Cc3ccc(C(=O)O)cc3)ccc21"
measure_name = "Population Healthy Nuclei (%)"
unit_text = "%"
experimental_value = 47

[[record]]
compound = "N#Cc1cnc(Nc2cc(NC[C@H]3CNCCO3)c(C(F)(F)F)cn2)cn1"
measure_name = "Population Healthy Nuclei (%)"
unit_text = "%"
experimental_value = 87

[[record]]
compound = "CCCn1c(=O)c2[nH]c(C34CC5CC(CC3C5)C4)nc2n(CCC)c1=O"
measure_name = "Population Healthy Nuclei (%)"
unit_text = "%"
experimental_value = 58

[[record]]
compound = "Cl.Cl.NC1(c2ccc(-c3nc4ccn5c(=O)[nH]nc5c4cc3-c3ccccc3)cc2)CCC1"
measure_name = "Population Healthy Nuclei (%)"
unit_text = "%"
experimental_value = 23


[ask] Quote U2OS Population Healthy Nuclei (%) for entry Cc1cn(-c2cc(NC(=O)c3ccc4c(c3)CN(c3cncnc3)C[C@@H]4C)cc(C(F)(F)F)c2)cn1 .
[reply] 84

[ask] Quote U2OS Population Healthy Nuclei (%) for entry c1ccc2oc(-c3csc(C4CCN(Cc5nc6ncccc6[nH]5)CC4)n3)cc2c1 .
[reply] 91

[ask] Quote U2OS Population Healthy Nuclei (%) for entry CCn1c(-c2nonc2N)nc2cnc(Oc3cccc(NC(=O)c4ccc(OCCN5CCOCC5)cc4)c3)cc21 [GSK-269962A] .
[reply] 52

[ask] Quote U2OS Population Healthy Nuclei (%) for entry CC(=O)c1cc(-c2cc(C(=O)NC3CC3)ccc2C)c2ncccn12 .
[reply] 63
